system: HEK-293T; experiment: Incucyte cell viability with HEK293T; assay type: toxicity, cell-based; settings: human, 6 h, 10 µM, compound concentration 10 uM, replicate number 2, timepoint 6 hours; note: filed as whole numbers so only -1 and 0 and 1 occur
Documented Growth Rate across a set of compounds
When you answer, write just the number.

Below: 2 compounds and their reported Growth Rate.
COMPOUND: CC1(C)C(=O)C(C)(C)c2cc(C(=O)Nc3ccc(C(=O)O)cc3)ccc21
ASSAY READOUT: Growth Rate
RECORDED RESULT: 1

COMPOUND: Cn1nc(C(F)(F)F)cc1-c1cnc(N2CCc3cc(S(=O)(=O)Nc4c(F)cc(Cl)cc4F)cc(N4CCCC4=O)c32)nc1
ASSAY READOUT: Growth Rate
RECORDED RESULT: 1

Reported Growth Rate for Nc1cc(F)ccc1NC(=O)/C=C/c1cnn(C/C=C/c2ccccc2)c1 was 0

Value of Growth Rate reported for the compound CO[C@H]1CC[C@H](CNc2ccc(S(=O)(=O)NC(=O)c3ccc(N4CCN(CC5=C(c6ccc(Cl)cc6)CC(C)(C)CC5)CC4)cc3Oc3cnc4[nH]ccc4c3)cc2[N+](=O)[O-])CC1 is 1

Growth Rate reported for this compound Cn1cc(CCn2cnc(-c3cnn(C)c3)c2-c2ccc(C#N)cc2)cn1 : 1

So for Cc1cc(C)c(S(=O)(=O)N(Cc2ccc(-c3cccc(S(C)(=O)=O)c3)cc2)Cc2ccc(C(F)(F)F)o2)c(C)c1 , the logged Growth Rate turned out to be 1

Kindly note the recorded Growth Rate for Cc1oncc1C(=O)Nc1ccc(C(F)(F)F)cc1 [LEFLUNOMIDE] , which is 1

The recorded Growth Rate for CCCc1c(OCCCOc2ccc(OCC(=O)O)cc2)ccc(C(C)=O)c1O is 0

The reported value for COc1cc(N2CCN(C)CC2)ccc1Nc1ncc2c(n1)N(C)c1ccccc1C(=O)N2C in terms of Growth Rate is 1

# compound CC[C@H](CO)Nc1nc(NCc2ccccc2)c2ncn(C(C)C)c2n1 ; its Growth Rate = 0

Measured Growth Rate, CN(C)C(=O)c1cc2cnc(Nc3ccc(N4CCNCC4)cn3)nc2n1C1CCCC1 : 0

Growth Rate in this record for CC(C)(Sc1ccc(CCN(CCCCC2CCCCC2)C(=O)NC2CCCCC2)cc1)C(=O)O : 1

Item: O=C(NOCC1CC1)c1ccc(F)c(F)c1Nc1ccc(I)cc1Cl | Growth Rate: 0

Growth Rate measured on CCCn1c(=O)c2[nH]c(-c3cnn(Cc4cccc(C(F)(F)F)c4)c3)nc2n(CC)c1=O = 1

Please fill in: Growth Rate reported for CCCCCNC(=O)NS(=O)(=O)c1cc([N+](=O)[O-])ccc1NC1CCCCC1 = 1

Value of measured Growth Rate for the entry C[C@]12CCC(=O)C=C1CC[C@@H]1[C@@H]2[C@@H](O)C[C@]2(C=O)[C@@H](C(=O)CO)CC[C@@H]12 : 1

###

test system: U2OS; experiment: Multiplex assay against U2OS; format: toxicity, cell-based; details: human, 12 h, 1 µM, compound concentration 1 uM, replicate 2
Entries and their measured Population Apoptotic (%) follow.
Please reply with the bare figure in % and do not write the unit itself.

Below are worked cases with known answers.
MOLECULE: CCN1CCN(Cc2ccc(Nc3ncc(F)c(-c4cc(F)c5nc(C)n(C(C)C)c5c4)n3)nc2)CC1.CS(=O)(=O)O
Population Apoptotic (%): 40

MOLECULE: CCc1cccc(CC)c1NC(=O)c1nn(C)c2c1CCc1cnc(Nc3ccc(N4CCN(C)CC4)cc3OC)nc1-2
Population Apoptotic (%): 68

MOLECULE: Cl.O=c1c2cccn2c2ccccc2n1CCCN1CCC(c2ccc(Cl)cc2)CC1
Population Apoptotic (%): 60

MOLECULE: C=CCn1c(=O)c2cnc(Nc3ccc(N4CCN(C)CC4)cc3)nc2n1-c1cccc(C(C)(C)O)n1 [ADAVOSERTIB]
Population Apoptotic (%): 12

MOLECULE: O=C(Nc1ccc(-c2ccnc(Nc3ccc(N4CCOCC4)cc3)n2)cc1)[C@@H]1CCCN1
Population Apoptotic (%): 33

Value of measured Population Apoptotic (%) for the entry CCCS(=O)(=O)Nc1ccc(F)c(C(=O)c2c[nH]c3ncc(Cl)cc23)c1F [PLX-4720] : 33

Reported Population Apoptotic (%) ( CCNc1cc(N[C@H]2CC[C@H](O)CC2)nc(Nc2ccc3c(ccn3Cc3ccccc3)c2)n1 ) = 42

Population Apoptotic (%) recorded for this molecule, COc1cccc2cc(-c3nc([C@H]4CC[C@H](C(=O)O)CC4)n4ncnc(N)c34)[nH]c12 [OSI-027] , is 33

// sample CCOC(=O)c1c(C)[nH]c2ccc3c(c12)CN1CCc2cc(OC)ccc2C1O3 (configuration not stated) , its Population Apoptotic (%) was 9

// Population Apoptotic (%) value for O=C(Cc1ccc(-c2ccc(OCCN3CCOCC3)cc2)cn1)NCc1ccccc1 [TIRBANIBULIN] : 0

Population Apoptotic (%) measured on CN1CCN(C(=O)C(C)(C)c2ccc(C(=O)Nc3cn4cc(-c5cc(C(C)(C)C)cc(C(C)(C)C)c5)ccc4n3)cc2)CC1 [T3-CLK-N] = 28

Consider CCn1c(=O)c(-c2ccc(-c3cncs3)cc2Cl)cc2cnc(Nc3ccc(N4CCN(C)CC4)cc3)nc21 . Its measured Population Apoptotic (%) is 75
